Biological target: neuropeptide Y Y2 receptor (Homo sapiens, UniProt P49146)
Construct: endogenous in cells; host or cells: SMS-KAN human neuroblastoma cells (whole cells; gift of Dr Thue Schwartz)
Sequence (P49146 whole entry): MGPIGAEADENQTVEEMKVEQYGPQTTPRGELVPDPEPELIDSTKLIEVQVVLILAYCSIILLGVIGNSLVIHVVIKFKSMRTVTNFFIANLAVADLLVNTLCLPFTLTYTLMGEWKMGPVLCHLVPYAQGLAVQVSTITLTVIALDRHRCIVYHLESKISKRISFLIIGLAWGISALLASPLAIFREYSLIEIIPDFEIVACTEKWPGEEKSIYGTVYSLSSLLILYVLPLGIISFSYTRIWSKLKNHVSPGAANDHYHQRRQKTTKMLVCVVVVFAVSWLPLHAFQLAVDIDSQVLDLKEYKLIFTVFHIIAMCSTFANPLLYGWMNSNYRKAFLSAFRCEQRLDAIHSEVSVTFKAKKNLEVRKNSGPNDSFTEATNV
Assay: Competition with radiolabelled peptide YY for binding to SMS-KAN cells
pIC50: −log10 of the molar value. Where no end group is shown, it is not given here.
PARAMETER: pIC50

A. Ac-LRHYLNLLTRQRY-NH2
B. LRHYLNLLTRQRY-NH2 [[Leu^28, Leu^31] neuropeptide Y-(24-36)]
// which entry reports the smaller pIC50, A or B ? Give the label of your selection.
B
